target: Human 11β-HSD1 (Homo sapiens); construct: expressed in transfected cells; host or cells: CHOP cells (transient, FuGENE); test: 11β-HSD1 assay in intact CHOP cells transfected with human HSD11B1; format: cell-based; settings: CHOP cells transfected with human HSD11B1, relative to curcumin
Sequence (P28845 whole entry): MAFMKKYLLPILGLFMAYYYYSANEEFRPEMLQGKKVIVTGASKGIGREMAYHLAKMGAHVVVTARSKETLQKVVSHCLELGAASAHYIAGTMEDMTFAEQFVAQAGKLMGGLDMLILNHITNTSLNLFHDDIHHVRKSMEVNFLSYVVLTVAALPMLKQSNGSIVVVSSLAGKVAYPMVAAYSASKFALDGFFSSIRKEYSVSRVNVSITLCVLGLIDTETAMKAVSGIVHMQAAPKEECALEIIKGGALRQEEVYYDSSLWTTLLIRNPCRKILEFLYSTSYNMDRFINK
PROPERTY LABEL: Human 11β-HSD1 Potency to Curcumin (fold)
Just the number please, in fold, no unit attached.

Input line: Reported Human 11β-HSD1 Potency to Curcumin (fold) for Cn1cccc1/C=C1\CCC/C(=C\c2cccn2C)C1=O : what is it?
Output line: 1.09

Input line: Another compound to check: Cc1ccc(/C=C2\CCC/C(=C\c3ccc(C)s3)C2=O)s1
Output line: 0.50

Input line: Another compound to check: O=C(/C=C/c1cccs1)/C=C/c1cccs1
Output line: 24.68

Input line: Another compound to check: O=C1/C(=C/c2ccc(Br)o2)CCC/C1=C\c1ccc(Br)o1
Output line: 0.75

Input line: Another compound to check: Cc1ccsc1/C=C/C(=O)/C=C/c1sccc1C
Output line: 12.54

Input line: Another compound to check: O=C1/C(=C/c2cccs2)CC/C1=C\c1cccs1
Output line: 10.20

Input line: Another compound to check: O=C(/C=C/c1ccc(Br)o1)/C=C/c1ccc(Br)o1
Output line: 2.31

Input line: Another compound to check: Cc1ccc(/C=C2\CC/C(=C\c3ccc(C)s3)C2=O)s1
Output line: 20.68

Input line: Another compound to check: O=C1/C(=C/c2cccs2)CCC/C1=C\c1cccs1
Output line: 0.64

Input line: Another compound to check: O=C1/C(=C/c2ccc(Br)o2)CC/C1=C\c1ccc(Br)o1
Output line: 1.73

###

Field: log10 of IC50. Provide a value for each of the compounds that follow.
target: Rat 11β-HSD1 (Rattus norvegicus, UniProt P16232); construct: endogenous in cells; host or cells: primary adult Sprague-Dawley rat Leydig cells; test: 11β-HSD1 assay in intact rat Leydig cells; format: cell-based; settings: intact rat Leydig cells; read-out: Rat 11β-HSD1 IC50 (nM) in Leydig cells
Sequence (P16232 whole entry): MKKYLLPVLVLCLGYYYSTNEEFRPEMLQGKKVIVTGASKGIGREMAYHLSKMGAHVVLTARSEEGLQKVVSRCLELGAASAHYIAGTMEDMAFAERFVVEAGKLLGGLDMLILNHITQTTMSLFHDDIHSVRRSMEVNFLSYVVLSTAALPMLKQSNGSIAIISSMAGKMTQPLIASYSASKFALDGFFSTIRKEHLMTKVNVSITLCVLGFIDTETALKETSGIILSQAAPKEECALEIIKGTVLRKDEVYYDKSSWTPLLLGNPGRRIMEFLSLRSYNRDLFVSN
Short version: log10 scale, IC50, nM.

Input line: Reported log10 of IC50 for Cc1ccc(/C=C2\CC/C(=C\c3ccc(C)s3)C2=O)s1 : what is it?
Output line: 3.43

Input line: Another compound to check: O=C(/C=C/c1cccs1)/C=C/c1cccs1
Output line: 2.26

Input line: Another compound to check: Cc1ccsc1/C=C/C(=O)/C=C/c1sccc1C
Output line: 2.06

Input line: Another compound to check: O=C1/C(=C/c2ccc(Br)o2)CC/C1=C\c1ccc(Br)o1
Output line: 3.50

Input line: Another compound to check: COc1cc(/C=C/C(=O)CC(=O)/C=C/c2ccc(O)c(OC)c2)ccc1O
Output line: 3.76

Input line: Another compound to check: O=C(/C=C/c1ccc(Br)o1)/C=C/c1ccc(Br)o1
Output line: 3.62

Input line: Another compound to check: O=C1/C(=C/c2ccc(Br)o2)CCC/C1=C\c1ccc(Br)o1
Output line: 4.03

Input line: Another compound to check: Cn1cccc1/C=C1\CCC/C(=C\c2cccn2C)C1=O
Output line: 4.07

Input line: Another compound to check: O=C1/C(=C/c2cccs2)CCC/C1=C\c1cccs1
Output line: 3.41

Input line: Another compound to check: O=C1/C(=C/c2cccs2)CC/C1=C\c1cccs1
Output line: 3.02

Input line: Another compound to check: Cc1ccc(/C=C2\CCC/C(=C\c3ccc(C)s3)C2=O)s1
Output line: 4.08
